Sourced from the supplement of paper PMC3334620

Can you tell me PBM E-score for the items I'm about to list?
Molecular target: Sko1 (UniProt Q02100)
Sequence: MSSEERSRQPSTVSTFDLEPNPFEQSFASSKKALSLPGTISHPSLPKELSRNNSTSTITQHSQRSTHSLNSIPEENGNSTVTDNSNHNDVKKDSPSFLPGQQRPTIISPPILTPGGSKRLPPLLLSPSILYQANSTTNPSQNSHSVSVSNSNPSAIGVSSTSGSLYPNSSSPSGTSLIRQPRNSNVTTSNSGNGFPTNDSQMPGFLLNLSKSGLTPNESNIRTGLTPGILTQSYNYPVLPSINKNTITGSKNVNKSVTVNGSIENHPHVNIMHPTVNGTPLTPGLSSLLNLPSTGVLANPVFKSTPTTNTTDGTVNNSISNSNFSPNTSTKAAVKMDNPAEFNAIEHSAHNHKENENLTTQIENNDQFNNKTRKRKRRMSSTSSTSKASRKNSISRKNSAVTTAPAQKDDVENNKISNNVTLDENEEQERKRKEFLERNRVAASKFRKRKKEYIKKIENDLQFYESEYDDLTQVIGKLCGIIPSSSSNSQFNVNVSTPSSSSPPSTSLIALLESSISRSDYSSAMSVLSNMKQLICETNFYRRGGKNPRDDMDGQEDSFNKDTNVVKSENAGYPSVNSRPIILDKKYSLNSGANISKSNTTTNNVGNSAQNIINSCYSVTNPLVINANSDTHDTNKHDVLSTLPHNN
Assay: PBM E-score (8-mer binding enrichment) (E-score (-0.5 to 0.5)); higher = stronger / more preferred TF binding
Details: protein concentration: 200 nM; construct: GST-full length
In all, about 33,000 sequences were measured (“E-score (-0.5 to 0.5)”: median about -0.032, highest 2% from about 0.36 on). Only a selection was taken, and the highest values are over-represented in it overall.

**Q:** Report PBM E-score under test system Sko1 (UniProt Q02100) for GCCCGTCA .
**A:** -0.00134

**Q:** Report PBM E-score under test system Sko1 (UniProt Q02100) for AGTCAGAC .
**A:** -0.203

**Q:** Print Sko1 (UniProt Q02100) PBM E-score for GGGCAGAC .
**A:** -0.242

**Q:** Provide PBM E-score, system Sko1 (UniProt Q02100), entry AGAGTCAT
**A:** -0.0362

**Q:** Write down the reported PBM E-score (system: Sko1 (UniProt Q02100)) of CGAGTTCA
**A:** 0.00744

**Q:** Enter measured PBM E-score, system Sko1 (UniProt Q02100), for the sequence shown: GCACGTCC
**A:** 0.0489

**Q:** Write down measured PBM E-score (Sko1 (UniProt Q02100)) for this sequence. CTACGCGA
**A:** 0.167

**Q:** Fill: PBM E-score (Sko1 (UniProt Q02100)) for this sequence GTACGGCA
**A:** 0.0279

**Q:** Provide the reported PBM E-score (system: Sko1 (UniProt Q02100)) for ACAAGTTG
**A:** -0.041

**Q:** // output PBM E-score; input ATGTAATG ; system Sko1 (UniProt Q02100)
**A:** 0.321

**Q:** Please tell me the measured PBM E-score for CTACGTGA ; system: Sko1 (UniProt Q02100).
**A:** 0.404

**Q:** Report the value of PBM E-score obtained on Sko1 (UniProt Q02100) for CGCCTGAC .
**A:** 0.0438

**Q:** Find PBM E-score for ACCGGTGG on Sko1 (UniProt Q02100) and write it down.
**A:** -0.404

**Q:** Fetch value of PBM E-score on Sko1 (UniProt Q02100) for CTTGCGTA .
**A:** 0.423

**Q:** Give Sko1 (UniProt Q02100) PBM E-score for the following sequence: CTTAAGCA
**A:** -0.0027

**Q:** Output reported PBM E-score of the sequence ACTAGTGC on Sko1 (UniProt Q02100).
**A:** -0.13

**Q:** Provide measured PBM E-score on Sko1 (UniProt Q02100) for CCCTATGA please.
**A:** 0.0198

**Q:** Report PBM E-score from Sko1 (UniProt Q02100) testing of ACAACCGG
**A:** -0.197

**Q:** Recall the reported PBM E-score of CTTTGGGA when tested on Sko1 (UniProt Q02100).
**A:** -0.187

**Q:** Under Sko1 (UniProt Q02100), report PBM E-score for CGTTATGA
**A:** 0.267

**Q:** Give PBM E-score for AGCGTGAT tested on Sko1 (UniProt Q02100).
**A:** 0.147

**Q:** Specify the recorded PBM E-score for ACGTAATC , system: Sko1 (UniProt Q02100).
**A:** 0.492

**Q:** Answer briefly: PBM E-score recorded on Sko1 (UniProt Q02100) for CTTTTTAA
**A:** 0.112

**Q:** // fetch PBM E-score; item: AACACGTC ; system: Sko1 (UniProt Q02100)
**A:** 0.401

**Q:** Recall the reported PBM E-score of GTACGTCA on Sko1 (UniProt Q02100) and write it down.
**A:** 0.491

**Q:** For Sko1 (UniProt Q02100), give PBM E-score of the listed sequence: ATGTAATC
**A:** 0.313

**Q:** Please tell me the measured PBM E-score for CCGTAATC ; system: Sko1 (UniProt Q02100).
**A:** 0.111

**Q:** Report PBM E-score under test system Sko1 (UniProt Q02100) for AATAATCT .
**A:** 0.125

**Q:** Provide the reported PBM E-score (system: Sko1 (UniProt Q02100)) for GCAGAACC
**A:** -0.16

**Q:** Give Sko1 (UniProt Q02100) PBM E-score for the following sequence: AGGAGATC
**A:** -0.214

**Q:** Write PBM E-score of ATGTCCAA ; system used: Sko1 (UniProt Q02100)
**A:** 0.0296

**Q:** Retrieve PBM E-score on Sko1 (UniProt Q02100); query ACTAAGTA
**A:** 0.0919

**Q:** State measured PBM E-score of the sequence GGGACAAA with Sko1 (UniProt Q02100).
**A:** -0.0851

**Q:** Fill in: PBM E-score on Sko1 (UniProt Q02100), entry ACACGTCC
**A:** 0.214

**Q:** # return PBM E-score of CTTGCGGA (system: Sko1 (UniProt Q02100))
**A:** -0.261

**Q:** Under Sko1 (UniProt Q02100): report PBM E-score of CGTTTTAC .
**A:** 0.209

**Q:** Write down the reported PBM E-score (system: Sko1 (UniProt Q02100)) of CCTGCGTA
**A:** 0.315

**Q:** Tell me PBM E-score of AACACCAA when tested on Sko1 (UniProt Q02100).
**A:** 0.109

**Q:** Answer briefly: PBM E-score recorded on Sko1 (UniProt Q02100) for GCACGTCA
**A:** 0.477

**Q:** Enter PBM E-score (test system Sko1 (UniProt Q02100)) for ATCTTCGC
**A:** 0.1

**Q:** Answer briefly: PBM E-score recorded on Sko1 (UniProt Q02100) for GTCCGTCA
**A:** 0.179

**Q:** Look up Sko1 (UniProt Q02100) data: PBM E-score of TCCGAACA , then report it.
**A:** -0.124

**Q:** Supply PBM E-score measured with Sko1 (UniProt Q02100) for ACAGTCTG .
**A:** -0.171

**Q:** Tell me its PBM E-score on Sko1 (UniProt Q02100): ACGTAATG
**A:** 0.492

**Q:** # return PBM E-score of AACACGTA (system: Sko1 (UniProt Q02100))
**A:** 0.459

**Q:** Provide PBM E-score, tested on Sko1 (UniProt Q02100), for ACACGTCG .
**A:** 0.335
